test system: Human Gal3 peptides; assay: Gal3 peptide binding ELISA (Example 8); conditions: antibody 5 μg/mL
MEASURED_METRIC: binding to any of the tested Gal3 peptides

1) 846T.4C9: anti-Gal3 antibody (antibody, V domains shown) VH: EVQLQQSGPELVKPGASVKMSCKASGYSFTNYIMHWVKQKPGQGLEWIGYINPYNDGTKYNEKFKGKATLTSDKSSSTAYMELSSLTSEDSAVYYCARLLFYYAMDYWGQGTSVTVSS VL: DILMTQTPSSMSVSLGDTVSITCHASQGISSNIGWLQQKPRKSFKGLIYYGTNLEDGVPSRFSGSGSGADYSLTISSLESEDFADYYCVQYDQFPWTFGGGTKLEIK | not found to bind
2) 849.4F12: anti-Gal3 antibody (antibody, V domains shown) VH: QVQLKESGPGILQPSQTLSLTCSFSGFSLSTFGMGVGWIRQPSGKGLEWLAHIWWDDDKHYNPALKSRLTISKDTSKNQVFLRIANVDTADNATYYCARIDYGDYVGFAYWGQGTLVTVSA VL: DILLTQSPSSMSVSLGDTVSITCHASQGINSNIGWLQQKPGKSFKGLIYHGTNLEDGVPSRFSGSGSGADYSLTISSLESEDFADYYCVQYDQFPWTFGGGTKLEIK | not found to bind
